Below, each entry is listed alongside its reported Specifically bound [^3 H]-PN-200 110 % of control value.
- System: [^3 H]-PN-200 110 (dihydropyridine) binding site of calcium channel, rat brain membranes
- ASSAY INFO: [^3 H]-PN-200 110 binding to rat brain membranes
- Set-up: species or system rat (male Wistar)
- RUN CONDITIONS: compound concentration 1.0 μM; Table 1b
- Procedure: Diltiazem hydrochloride was a generous gift from Goedecke A. G. Water insoluble compounds were dissolved in absolute ethanol to give 10 mM or 2.5 mM stock solutions. […] The purity of the radioligand and of the various agents tested was monitored by thin layer chromatography on silica gel plates. […] Data were expressed as percent specific [^3 H]-Nitrendipine binding relative to the established control value. […]

>>> print(df.to_string())
                              smiles_record                               test_target                 result
0  CCCCOP(=O)(CC(Cc1ccc(CN2CCN(c3ccccc3)CC2)cc1)CP(=O)(OCCCC)OCCCC)OCCCC  [^3 H]-PN-200 110 (dihydropyridine) binding site of calcium channel, rat brain membranes  59 % of control value
1  CCCCOP(=O)(CC(Cc1cnc(C)c2c1COC(C)(C)O2)CP(=O)(OCCCC)OCCCC)OCCCC  [^3 H]-PN-200 110 (dihydropyridine) binding site of calcium channel, rat brain membranes  47 % of control value
2  CCCCOP(=O)(CC(Cc1cnc(C)c(O)c1CO)CP(=O)(OCCCC)OCCCC)OCCCC  [^3 H]-PN-200 110 (dihydropyridine) binding site of calcium channel, rat brain membranes  89 % of control value

Moving on to the next molecule.
Which Specifically bound [^3 H]-PN-200 110 % of control value is reported for this molecule? C=CCCOP(=O)(CC(CCOc1ccccc1)CP(=O)(OCCC=C)OCCC=C)OCCC=C
13 % of control value

* * *

Below, each entry is listed alongside its reported Specifically bound [^3 H]-Nitrendipine % of control value.
- System: calcium channel binding site for [^3 H]-Nitrendipine (rat brain membranes)
- ASSAY INFO: [^3 H]-Nitrendipine binding to rat brain membranes
- Parameters: species or system rat (male Wistar)
- RUN CONDITIONS: compound concentration 1.0 μM; Table 1a

                              smiles_record                  result
0  CCOP(=O)(CC(Cc1cccc2ccccc12)CP(=O)(OCC)OCC)OCC  104 % of control value

Give the reported Specifically bound [^3 H]-Nitrendipine % of control value for CCOP(=O)(CC(Cc1ccccc1)CP(=O)(OCC)OCC)OCC (system: calcium channel binding site for [^3 H]-Nitrendipine (rat brain membranes)).
100 % of control value

Give the reported Specifically bound [^3 H]-Nitrendipine % of control value for COP(=O)(CC(Cc1ccccc1)CP(=O)(OC)OC)OC (system: calcium channel binding site for [^3 H]-Nitrendipine (rat brain membranes)).
92 % of control value

Give the reported Specifically bound [^3 H]-Nitrendipine % of control value for CCCCOP(=O)(CC(CCc1ccccc1)CP(=O)(OCCCC)OCCCC)OCCCC (system: calcium channel binding site for [^3 H]-Nitrendipine (rat brain membranes)).
17 % of control value

Give the reported Specifically bound [^3 H]-Nitrendipine % of control value for CCCCOP(=O)(CC(Cc1ccc(-c2ccccc2)cc1)CP(=O)(OCCCC)OCCCC)OCCCC (system: calcium channel binding site for [^3 H]-Nitrendipine (rat brain membranes)).
80 % of control value

* * *

- System: calcium channel binding site for [^3 H]-Nitrendipine (rat brain membranes)
- ASSAY INFO: [^3 H]-Nitrendipine binding to rat brain membranes
- Parameters: species or system rat (male Wistar)
- RUN CONDITIONS: ratio of [^3 H]-Nitrendipine bound at 1.0 and 0.1 μM compound; Table 1a
MEASURED ATTRIBUTE: Bound ^3 H at 1.0 μM / Bound ^3 H at 0.1 μM
Write the value as a bare number.

Past entries and their recorded results:
>>> print(df.to_string())
                              smiles_record  measured_number
0  CCCCOP(=O)(CC(Cc1ccncc1)CP(=O)(OCCCC)OCCCC)OCCCC            0.967
1  CCCCOP(=O)(CC(CCOc1ccccc1)CP(=O)(OCCCC)OCCCC)OCCCC            0.000
2  CCOP(=O)(CC(Cc1ccc(Cl)cc1)CP(=O)(OCC)OCC)OCC            1.003

Which Bound ^3 H at 1.0 μM / Bound ^3 H at 0.1 μM is reported for this molecule? CCCCCC(CP(=O)(OCCCC)OCCCC)CP(=O)(OCCCC)OCCCC
0.387

Which Bound ^3 H at 1.0 μM / Bound ^3 H at 0.1 μM is reported for this molecule? CCOP(=O)(CC(CCCc1ccccc1)CP(=O)(OCC)OCC)OCC
0.982

Which Bound ^3 H at 1.0 μM / Bound ^3 H at 0.1 μM is reported for this molecule? CCCCOP(=O)(CC(CCCC1CCCCC1)CP(=O)(OCCCC)OCCCC)OCCCC
0.000

Which Bound ^3 H at 1.0 μM / Bound ^3 H at 0.1 μM is reported for this molecule? CCOP(=O)(CC(CCc1ccccc1)CP(=O)(OCC)OCC)OCC
1.018

Which Bound ^3 H at 1.0 μM / Bound ^3 H at 0.1 μM is reported for this molecule? O=P(O)(O)CC(CCCc1ccccc1)CP(=O)(O)O
0.957

Which Bound ^3 H at 1.0 μM / Bound ^3 H at 0.1 μM is reported for this molecule? CC(C)OP(=O)(CC(CCCc1ccccc1)CP(=O)(OC(C)C)OC(C)C)OC(C)C
1.115

* * *

- System: mean blood pressure in rat
- ASSAY INFO: Acute intravenous hypotensive activity in anesthetized rats
- Assay type: in vivo, rat (male Wistar)
- RUN CONDITIONS: Rattus norvegicus, iv, read-out: Decrease in mean blood pressure (% pretest)
Returns the class for an entry based on its inhibition in vivo at 0.5 mg/kg. Class ranges: one = under 20%, two = from 20% up to 40%, three = 40% and over

Reference set (5 entries):
In [3]: df
Out[3]:
                              smiles_record  label
0  CCOP(=O)(CC(CCCc1ccccc1)CP(=O)(OCC)OCC)OCC    two
1  CC(C)OP(=O)(CC(Cc1ccccc1)CP(=O)(OC(C)C)OC(C)C)OC(C)C    two
2  CCOP(=O)(CC(CCOc1ccccc1)CP(=O)(OCC)OCC)OCC    one
3  CCCCOP(=O)(CC(Cc1ccccc1)CP(=O)(OCCCC)OCCCC)OCCCC  three
4  CCOP(=O)(CC(Cc1ccccc1)CP(=O)(OCC)OCC)OCC    two

Please report the category associated with CCCCOP(=O)(CC(CCc1ccccc1)CP(=O)(OCCCC)OCCCC)OCCCC , nothing else.
three

Please report the category associated with CCCCOP(=O)(CC(Cc1cccc2ccccc12)CP(=O)(OCCCC)OCCCC)OCCCC , nothing else.
one

Please report the category associated with CCCCOP(=O)(CC(CCCc1ccccc1)CP(=O)(OCCCC)OCCCC)OCCCC , nothing else.
two

* * *

- Tested on: mean blood pressure in rat
- ASSAY INFO: Acute intravenous hypotensive activity in anesthetized rats
- Format: in vivo, rat (male Wistar)
- RUN CONDITIONS: Rattus norvegicus, iv, read-out: Decrease in mean blood pressure (% pretest)
- Experimental: Male Wistar rats were anesthetized with Pentobarbital (Nembutal, 60 mg/kg i.p.) and heparinized (5 mg/kg i.p.). After tracheotomy the right carotid was cannulated (catheter PE 50); blood pressure was measured with a pressure transducer (Statham P 23 db) and recorded on a polygraph (Beckman). Animals received 0.5 and 1.5 mg/kg of the test compounds. […] Results presented are expressed as percent decrease in initial mean blood pressure (Mean±SEM).
Below, each entry is listed alongside its reported inhibition in vivo at 0.5 mg/kg.
// return numeric value only (unit: %, not printed)

Past entries and their recorded results:
                              smiles_record                 test_target  measured_number
0  CCOP(=O)(CC(CCc1ccccc1)CP(=O)(OCC)OCC)OCC  mean blood pressure in rat             18.1
1  CCCCOP(=O)(CC(Cc1cc(OC)c(OC)c(OC)c1)CP(=O)(OCCCC)OCCCC)OCCCC  mean blood pressure in rat             40.1

Moving on to the next compound.
Which inhibition in vivo at 0.5 mg/kg is reported for this compound? CCOP(=O)(CC(Cc1ccc(Cl)cc1)CP(=O)(OCC)OCC)OCC
17

* * *

- Test system: [^3 H]-PN-200 110 (dihydropyridine) binding site of calcium channel, rat brain membranes
- ASSAY INFO: [^3 H]-PN-200 110 binding to rat brain membranes
- Design: species or system rat (male Wistar)
- RUN CONDITIONS: compound concentration 1.0 μM; Table 1b
MEASURED ATTRIBUTE: Specifically bound [^3 H]-PN-200 110 % of control value

Past entries and their recorded results:
In [3]: df
Out[3]:
                                   compound                 result
0  CCCCOP(=O)(CC(CCOc1cccc(C(F)(F)F)c1)CP(=O)(OCCCC)OCCCC)OCCCC [Compound 93]   0 % of control value
1  CCCCOP(=O)(CC(CCOc1ccc(Cl)cc1)CP(=O)(OCCCC)OCCCC)OCCCC [Compound 90]   4 % of control value
2  CCCCOP(=O)(CC(CCOc1ccc(-c2ccccc2)cc1)CP(=O)(OCCCC)OCCCC)OCCCC [Compound 100]  38 % of control value

Which Specifically bound [^3 H]-PN-200 110 % of control value is reported for this compound? CCCCOP(=O)(CC(CCCC1(C)OCCO1)CP(=O)(OCCCC)OCCCC)OCCCC [Compound 106]
42 % of control value

Which Specifically bound [^3 H]-PN-200 110 % of control value is reported for this compound? CCCCOP(=O)(CC(CCCc1ccc([N+](=O)[O-])cc1[N+](=O)[O-])CP(=O)(OCCCC)OCCCC)OCCCC [Compound 98]
19 % of control value
